- System: reserpine-induced hypothermia
- Experiment description: Antidepressive action: reserpine antagonism, inhibition of reserpine-induced hypothermia of the mouse
- Assay type: in vivo, male Swiss mice
- Applied conditions: Mus musculus; Table 1; oral administration 60 min before reserpine; dose based on the base; read-out: ED 50% (dose which inhibits the reserpine-induced hypothermia of the mouse by 50%)
Structures can show the parent of a compound that is named as a salt.
// map ED50 to label using low = under 0.7 mg/kg, mid = from 0.7 mg/kg up to 2 mg/kg, high = 2 mg/kg and over

| Compound | Measured target | Label class |
| --- | --- | --- |
| CCOc1cc(=NC(C)=O)cnn1-c1ccccc1 | reserpine-induced hypothermia | mid |
| CCOC(=O)N=c1ccn(-c2ccccc2)nc1 [Example 29, hydrochloride] | reserpine-induced hypothermia | mid |
| COc1cc(=NC(=O)c2cccc(C(F)(F)F)c2)cnn1-c1ccccc1 | reserpine-induced hypothermia | high |
| COc1cc(=NC(=O)c2ccccc2Cl)cnn1-c1ccccc1 | reserpine-induced hypothermia | mid |
| COc1cc(OC)cc(C(=O)N=c2cnn(-c3ccccc3)c(OC)c2)c1 | reserpine-induced hypothermia | low |
| O=C(N=c1ccn(-c2ccccc2)nc1)c1cc(Cl)cc(Cl)c1 | reserpine-induced hypothermia | high |
| Cc1cccc(C(=O)N=c2ccn(-c3ccccc3)nc2)c1 | reserpine-induced hypothermia | mid |
| COc1cc(=NC(=O)c2ccc(Cl)c(Cl)c2)cnn1-c1ccccc1 | reserpine-induced hypothermia | mid |
| COc1cc(N)cn[n+]1-c1ccccc1 [Amezinium, reference compound] | reserpine-induced hypothermia | mid |
| COc1cc(=NC(=O)c2ccccc2)cnn1-c1ccccc1 | reserpine-induced hypothermia | mid |
| CNC(=O)N=c1ccn(-c2ccccc2)nc1 | reserpine-induced hypothermia | low |
| CC1(C(=O)N=c2ccn(-c3ccccc3)nc2)CCCCC1 | reserpine-induced hypothermia | low |
| CCCNC(=O)N=c1ccn(-c2ccccc2)nc1 | reserpine-induced hypothermia | low |
| COc1cc(=NC(=O)c2ccc(Cl)cc2)cnn1-c1ccccc1 | reserpine-induced hypothermia | mid |
| CCC(=O)N=c1cnn(-c2ccccc2)c(OC)c1 | reserpine-induced hypothermia | low |
| COc1cc(=NC(=O)c2ccc(F)cc2)cnn1-c1ccccc1 | reserpine-induced hypothermia | mid |
| C=CCOC(=O)N=c1cnn(-c2ccccc2)c(OC)c1 | reserpine-induced hypothermia | mid |
| CCOC(=O)N=c1cnn(-c2ccccc2)c(OC)c1 | reserpine-induced hypothermia | high |
| O=C(N=c1ccn(-c2ccccc2)nc1)c1ccc(Cl)c(Cl)c1 | reserpine-induced hypothermia | high |
| COc1cc(=NC(=O)c2ccc(C)cc2)cnn1-c1ccccc1 | reserpine-induced hypothermia | mid |
| O=C(N=c1ccn(-c2ccccc2)nc1)c1ccc(Cl)cc1Cl | reserpine-induced hypothermia | mid |
| O=C(N=c1ccn(-c2ccccc2)nc1)c1cccc(C(F)(F)F)c1 | reserpine-induced hypothermia | high |
| O=C(N=c1ccn(-c2ccccc2)nc1)c1ccc(Cl)cc1 | reserpine-induced hypothermia | mid |
| COc1cc(=NC(=O)NCc2ccccc2)cnn1-c1ccccc1 | reserpine-induced hypothermia | high |
| O=C(N=c1ccn(-c2ccccc2)nc1)C1CC1 [Example 10, hydrochloride] | reserpine-induced hypothermia | mid |
| CCC(=O)N=c1ccn(-c2ccccc2)nc1 [Example 3, hydrochloride] | reserpine-induced hypothermia | low |
| CCNC(=O)N=c1ccn(-c2ccccc2)nc1 | reserpine-induced hypothermia | low |

Ref: patent US4820821A
